Tested on: Leishmania donovani
PROTOCOL: Antileishmanial activity against Leishmania donovani amastigotes infected in J774.A1 macrophage assessed as inhibition of parasite growth by luciferase assay
Format: functional, organism-based
ASSAY_CONTEXT: Leishmania donovani, J774.A1; read-out: IC50
Below, each of the compounds is paired with its reported pIC50 value.
# reply with the number alone; pIC50 is -log10 of concentration in mol/L

- COMPOUND: "O=C(Nc1cccc(C(F)(F)F)c1)c1cc(Cl)ccc1O"
  ASSAYED_TARGET: "Leishmania donovani"
  pIC50: 5.46

Endpoint output: pIC50 of `O=C(Nc1cccc(Cl)c1)c1cc(Cl)ccc1O` . Value?
5.34

* * *

The following compounds are listed with their measured CC50 values.
PROTOCOL: Cytotoxicity against African green monkey Vero cells assessed as reduction in cell viability by MTT assay
Assay type: toxicity, cell-based
ASSAY_CONTEXT: chlorocebus sabaeus
State the answer as a number, implicitly in µM.

Would you please look over these solved cases?
- COMPOUND: "O=C(Nc1cc(Cl)cc(Cl)c1)c1cc(Cl)ccc1O"
  UNIT_NAME: "µM"
  CC50: 6.49
- COMPOUND: "O=C(Nc1ccccc1Cl)c1cc(Cl)ccc1O"
  UNIT_NAME: "µM"
  CC50: 13.2

Could you tell me which CC50 is on file for `O=C(Nc1ccccc1F)c1cc(Cl)ccc1O` ?
12.1

What value of CC50 has been recorded for this entry: `O=C(Nc1cccc(Cl)c1)c1cc(Cl)ccc1O`
13.9

Field request: CC50 | item: `O=C(Nc1ccc(F)c(F)c1)c1ccccc1O`
45.4

Sample O=C(Nc1ccc([N+](=O)[O-])cc1Cl)c1cc(Cl)ccc1O [NICLOSAMIDE] — what was its CC50?
3.06

Which CC50 is listed for `O=C(Nc1ccc([N+](=O)[O-])cc1F)c1ccccc1O` ?
11.7

Would you kindly share the measured CC50 for `O=C(Nc1ccc(F)c(F)c1)c1cc(Cl)ccc1O` ?
10.6

Item `O=C(Nc1ccc(F)cc1[N+](=O)[O-])c1ccccc1O` has what recorded CC50?
65.2

Tell me the measured CC50 of `O=C(Nc1ccc(Br)c(C(F)(F)F)c1)c1cc(Cl)ccc1O` , please.
2.54

Entry under review: `O=C(Nc1cc(Cl)cc(Cl)c1)c1ccccc1O` . Reported CC50?
7.09

What CC50 value was documented for this compound, O=C(Nc1cc(Cl)cc(Cl)c1O)c1c(O)c(Cl)cc(Cl)c1Cl [OXYCLOZANIDE] ?
156

* * *

PROTOCOL: Selectivity index, ratio of CC50 for cytotoxicity against African green monkey Vero cells to IC50 for antileishmanial activity against Leishmania donovani amastigotes infected in J774.A1 macrophage
Assay type: toxicity, cell-based
ASSAY_CONTEXT: read-out: Ratio CC50/IC50
Returns: string. Value is 1.0 if measured selectivity ratio is below 3, and 0.0 if it is greater than or equal to it.

Solved cases (4 shown):
- MOLECULE: "O=C(Nc1ccc(F)c(Cl)c1)c1cc(Cl)ccc1O"
  ANSWER_LABEL: 0.0
- MOLECULE: "O=C(Nc1ccc(F)cc1[N+](=O)[O-])c1ccccc1O"
  ANSWER_LABEL: 0.0
- MOLECULE: "O=C(Nc1ccc([N+](=O)[O-])cc1Cl)c1cc(Cl)ccc1O [NICLOSAMIDE]"
  ANSWER_LABEL: 1.0
- MOLECULE: "O=C(Nc1ccc([N+](=O)[O-])cc1F)c1cc(Cl)ccc1O"
  ANSWER_LABEL: 1.0

From here, focus on the item given below.
Is 3 strictly greater than the molecule's reported selectivity ratio? molecule: `O=C(Nc1ccc([N+](=O)[O-])cc1F)c1ccccc1O`
1.0
